- System under test: T1, HLA-DP4 molecule DP402 (DPA1*0103/DPB1*0402) (human), P20036
- T1 chain 1: not shown
- T1 chain 2: not shown
- Test summary: competition ELISA, tracer bUNK1
# key: entry, value: pIC50
Formally, pIC50 is defined as -log10 of the concentration c, with c in mol/L.

Suppose we examine the binder LLEFYLAMPFATPMEAELARRSLAQ (modifications not checked) [NY-ESO1 87-111] ; what pIC50 value has been reported?
7.08

Again, but for RNGYRALMDKSLHVGTQCALTRR (modifications not checked) [MART1 51-73]
5.40

Moving on to the next binder: AATQFEPLAARL (modifications not checked) [UNK 6-17]
5.22

Attention now shifts to the item below.
// returns reported pIC50 for input TISSYFVGKMYFNLIDTK (modifications not checked) [Api m1 77-94]
6.76
